TARGET SYSTEM: Uracil-DNA glycosylase (Vaccinia virus (strain Western Reserve) (VACV) (Vaccinia virus (strainWR))) (UniProt P04303)
EXPERIMENT DESCRIPTION: Binding affinity at Vaccinia virus WR strain D4 assessed as change in unfolding transition temperature at 50 uM by thermofluor method
Listed here are molecules together with their documented ΔTm.
Report as a plain number; the unit °C is understood.

Please review the following examples before continuing.
COC(=O)CC1Oc2ccc(C)cc2-n2cc(-c3ccc(F)cc3)nc21 (configuration not stated)
-6.6
COc1ccc(N2CCN(Cc3nc4c(c(=O)[nH]c(=O)n4C)n3Cc3ccc(Cl)cc3)CC2)cc1
-2.5
COc1cc(-c2nc(-c3ccccc3)c(-c3ccc(Br)cc3)[nH]2)cc(OC)c1O
4.6

Any idea what ΔTm was measured for Cc1ccnc(NC(c2ccccc2F)c2ccc3cccnc3c2O)c1 (configuration not stated) ?
-2

Any idea what ΔTm was measured for O=S(=O)(c1ccc(C2=CSC(Nc3ccc(F)cc3)N2CCCCCCO)cc1)N1CCCC1 (configuration not stated) ?
-3.3

Any idea what ΔTm was measured for COc1cc(-c2nc3ccc(Cl)cn3c2Nc2ccc3c(c2)OCCO3)ccc1O ?
-1.5

Any idea what ΔTm was measured for CN(C)c1ccc(NC(=O)CSc2nc(-c3ccco3)cc(C(F)(F)F)n2)cc1 ?
-1.7

Data origin, for the record: ChEMBL document CHEMBL1773050
